tested on: contractile response to potassium-induced depolarization on isolated rat aorta; assay: Calcium inhibitory properties: antagonism of contractile response to potassium-induced depolarization on isolated rat aorta; parameters: species or system rat (male Wistar); conditions: 10^-6 M; percent of maximal contraction before incubation; 60 min, 1 µM
Structures can show the parent of a compound that is named as a salt.
Parameter: % maximal contractional effect. Scope: all listed entries.

Q. Please give the measured % maximal contractional effect for this compound: CCCCc1oc2ccc(Cl)cc2c1S(=O)(=O)c1cc(Br)c(OCCCN(C)CCc2ccc(OC)c(OC)c2)c(Br)c1 [Ex. 7]
A. 80,3%

Q. Fill in the blank: the reported % maximal contractional effect of CCCCc1oc2ccc(Br)cc2c1S(=O)(=O)c1ccc(OCCCN(C)CCc2ccc(OC)c(OC)c2)cc1 [Ex. 8] is ____.
A. 61,5%

Q. So what's the measured % maximal contractional effect for this one? CCCCc1oc2ccc([N+](=O)[O-])cc2c1S(=O)(=O)c1ccc(OCCCN(C)CCc2ccc(OC)c(OC)c2)cc1 [Ex. 1, hydrochloride]
A. 45,4%

Q. Quick check: % maximal contractional effect of CCCCc1oc2ccc(NS(C)(=O)=O)cc2c1S(=O)(=O)c1ccc(OCCCN(C)CCc2ccc(OC)c(OC)c2)cc1 [Ex. 4] ?
A. 49,9%
